# MEASUREMENT PROTOCOL: Oral bioavailability in rat at 2 mg/kg
# Assay type: ADME, organism-based
# APPLIED CONDITIONS: in vivo
PROPERTY MEASURED: bioavailability (%)
Answers are plain numbers, in %.

Data point: CC(C)CC(c1nnnn1C)N(CC(C)C)c1ccc(C#N)c(Cl)c1 (stereo unspecified) ; bioavailability = 100

----------
# MEASUREMENT PROTOCOL: Cmax in rat at 2 mg/kg, po
# Format: ADME, organism-based
# Parameters: dose 2 mg/kg, route oral
# APPLIED CONDITIONS: in vivo
PROPERTY MEASURED: Cmax
Phrase the answer as number then unit, nothing more needed.

Data point: CC(C)CC(c1nnnn1C)N(CC(C)C)c1ccc(C#N)c(Cl)c1 (stereo unspecified) ; Cmax = 146 ng/mL

----------
# MEASUREMENT PROTOCOL: AUC (0 to t) in rat at 2 mg/kg, po
# Type: ADME, organism-based
# Set-up: dose 2 mg/kg, route oral
# APPLIED CONDITIONS: plasma
PROPERTY MEASURED: AUC(0-t) (ng·h/mL)
Answers are plain numbers, in ng·h/mL.

Data point: CC(C)CC(c1nnnn1C)N(CC(C)C)c1ccc(C#N)c(Cl)c1 (stereo unspecified) ; AUC(0-t) = 572
